# TD50 values compiled below
system: neurologic toxicity; test: neurologic toxicity (Tox), rat po; format: in vivo; conditions: in vivo, time in hours in brackets
measurement-name: TD50

[
  {
    "compound": "COC[C@@H](NC(C)=O)C(=O)NCc1ccc(OCc2cccc(F)c2)cc1 [(R)-3]",
    "system": "neurologic toxicity",
    "value": "> 30 mg/kg"
  },
  {
    "compound": "COC[C@H](NC(C)=O)C(=O)NCc1ccc(N=[N+]=[N-])cc1 [(S)-5, reference compound]",
    "system": "neurologic toxicity",
    "value": "> 30 mg/kg"
  },
  {
    "compound": "COCC#Cc1ccc(CNC(=O)[C@@H](COC)NC(C)=O)cc1 [(R)-6, reference compound]",
    "system": "neurologic toxicity",
    "value": "< 30 mg/kg"
  },
  {
    "compound": "COC[C@@H](NC(C)=O)C(=O)NCc1ccc(N=[N+]=[N-])cc1 [(R)-5, reference compound]",
    "system": "neurologic toxicity",
    "value": "> 250 mg/kg"
  }
]
